system: SK-OV-3 ovarian; experiment: NCI-60 one-dose screen, 48 h; conditions: 10 µM unless noted
Compounds without any hit were thinned out: in the full panel of roughly 83,000, 20% have a hit. Active and inactive are the calls of the source. Rule for the calls: active = growth percent below 10; inactive = the rest.
Thanks in advance; please answer with one of these: yes for active, no for inactive

Prompt: Record lookup: outcome of this test for COC(=O)[C@]12CC[C@@H](C(=O)/C=C/c3cccnc3)[C@@H]1[C@H]1CC[C@@H]3[C@@]4(C)C/C(=C/c5cccnc5)C(=O)C(C)(C)[C@@H]4CC[C@@]3(C)[C@]1(C)CC2 ?
Response: yes

Prompt: Record lookup: outcome of this test for Cc1nn(-c2ccc(Br)cc2)c2nc3[nH]c(=O)[nH]c(=O)c3nc12 ?
Response: no

Prompt: Record lookup: outcome of this test for c1ccc(CN2C(c3ccccc3)=Nc3ccccc3C2c2c[nH]c3ccccc23)cc1 (centres undefined) ?
Response: no

Prompt: Record lookup: outcome of this test for O=C1CN(c2ccccc2)C(=O)C1C(=O)Nc1ccc(Cl)c(Cl)c1 (centres undefined) ?
Response: no
